# tested_on: Parathyroid hormone/parathyroid hormone-related peptide receptor (Homo sapiens)
# experimental_details: Displacement of [125I]-[Nle,8,18 Tyr34]-hPTH(1-34) from human recombinant PTH1R expressed in HEK293 cells
Collected Ki values appear next to each entry.
Lab book: enter the figure in nM, no units written.

compound	Ki, nM
NCC(=O)Nc1ccc(N2C(=O)N(Cc3ccccc3)N=C(C3CCCCC3)c3ccccc32)cc1	676

I am curious: what Ki value has been reported for Cc1cc2c(cc1OCc1ccccc1)C(C1CCCCC1)=NN(C)C(=O)N2c1ccc(NCCc2ncc[nH]2)cc1 ?
1.82

Look up Ki: Cc1ccc2c(c1)N(c1ccc(NCCCc3ncc[nH]3)cc1)C(=O)N(C)N=C2C1CCCCC1
20.4

Any idea what Ki was measured for Cc1cc2c(cc1NCc1ccccc1)C(C1CCCCC1)=NN(C)C(=O)N2c1ccc(NCCc2ncc[nH]2)cc1 ?
1.45

Look up Ki: N=C(N)Nc1ccc(N2C(=O)N(Cc3ccccc3)N=C(c3ccccc3)c3ccccc32)cc1
3390

====

# tested_on: Parathyroid hormone/parathyroid hormone-related peptide receptor (Homo sapiens)
# Sequence (Q03431 whole entry): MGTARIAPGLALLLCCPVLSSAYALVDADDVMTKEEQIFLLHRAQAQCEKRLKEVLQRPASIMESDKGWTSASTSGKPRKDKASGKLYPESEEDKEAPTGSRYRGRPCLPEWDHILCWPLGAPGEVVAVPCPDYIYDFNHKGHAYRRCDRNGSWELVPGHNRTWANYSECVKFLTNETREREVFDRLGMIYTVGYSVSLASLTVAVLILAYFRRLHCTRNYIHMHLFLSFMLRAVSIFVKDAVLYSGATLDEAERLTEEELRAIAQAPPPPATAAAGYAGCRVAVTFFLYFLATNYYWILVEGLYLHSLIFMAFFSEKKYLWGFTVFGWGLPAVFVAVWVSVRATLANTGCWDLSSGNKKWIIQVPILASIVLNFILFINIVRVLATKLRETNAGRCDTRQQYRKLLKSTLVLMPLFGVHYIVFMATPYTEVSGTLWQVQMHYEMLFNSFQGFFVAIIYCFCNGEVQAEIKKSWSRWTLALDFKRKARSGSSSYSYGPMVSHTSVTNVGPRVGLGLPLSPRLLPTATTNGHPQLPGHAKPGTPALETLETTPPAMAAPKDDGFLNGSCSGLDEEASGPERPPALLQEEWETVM
# experimental_details: Displacement of [125I]-[Nle,8,18 Tyr34]-hPTH(1-34) from human recombinant PTH1R expressed in HEK293 cells
Listed here are compounds together with their documented pKi.
Quick note: pKi values are minus log10 of concentrations in mol/L.

See these solved cases before continuing.
smiles_str	pKi
Cc1ccc2c(c1)N(c1ccc(NCCc3ncc[nH]3)cc1)C(=O)N(C1CCOCC1)N=C2C1CCCCC1	8.18
CCCN1N=C(C2CCCCC2)c2ccc(C)cc2N(c2ccc(NCCc3ncc[nH]3)cc2)C1=O	8.17

Alright, here's another compound for you.
Fill in: pKi of Cc1ccc2c(c1)N(c1ccc(NCCc3ncc[nH]3)cc1)C(=O)N(C1CCc3ccccc3CC1)N=C2C1CCOCC1 is ___
8.17

====

# tested_on: Parathyroid hormone/parathyroid hormone-related peptide receptor (Homo sapiens, UniProt Q03431)
# experimental_details: Displacement of [125I]-[Nle,8,18 Tyr34]-hPTH(1-34) from human recombinant PTH1R expressed in HEK293 cells
endpoint_name: Ki
Phrase the answer as number then unit, nothing more needed.

Would you kindly share the measured Ki for Cc1ccc2c(c1)N(c1ccc(NCCc3ncc[nH]3)cc1)C(=O)N(C)N=C2C1CCCCC1 ?
13.2 nM

Which value of Ki has been reported for N=C(N)Nc1ccc(N2C(=O)N(Cc3ccccc3)N=C(C3CCCCC3)c3ccccc32)cc1 in the records?
708 nM

What measured Ki goes with Cc1ccc2c(c1)N(c1ccc(NCCc3ncc[nH]3)cc1)C(=O)N(C(C)C)N=C2C1CCCCC1 ?
3.55 nM

Which measured Ki value corresponds to N=C(N)Nc1cccc(N2C(=O)N(Cc3ccccc3)N=C(C3CCCCC3)c3ccccc32)c1 ?
2820 nM
